target: T1, cynomolgus monkey CD3 expressed on T cells (cynomolgus pan T cells/PBMC, HSC-F cell line) (cynomolgus monkey, UniProt Q95LI5 22-198); experiment: flow cytometry on cynomolgus T cells
T1 construct: whole, on cells; On T cells in the CD3 complex with the other subunits; only the epsilon chain is written out; also called cyno CD3; cyno T cells
T1 sequence (Q95LI5 22-198): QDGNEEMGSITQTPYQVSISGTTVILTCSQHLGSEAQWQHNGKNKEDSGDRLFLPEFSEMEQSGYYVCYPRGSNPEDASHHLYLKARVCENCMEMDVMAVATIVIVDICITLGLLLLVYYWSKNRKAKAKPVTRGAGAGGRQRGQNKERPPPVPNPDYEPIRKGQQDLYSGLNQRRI
Entries and their pEC50
# pEC50 = -log10(concentration in molar units)

{"columns": ["binder", "pEC50"],
 "data": [
  ["variant 18346, monovalent anti-CD3 scFv-heterodimeric Fc (VL hC3E-1 wildtype, VH hC3E-1 wildtype) (Fc fusion, scFv order VH-(GGGGS)3-VL on Fc chain A; chain B is Fc only; also called v18346; parental construct v18346; not shown: Fc-only chain B is also left out) scFv: EVQLVESGGGLVQPGGSLRLSCAASGVTFNYYGMSWIRQAPGKGLEWVASITNSGGRIYYPDSVKGRFTISRENTQKTLYLQMNSLRAEDTAVYYCTLDGRDGWVAYWGQGTLVTVSSGGGGSGGGGSGGGGSNFMLTQPHSVSESPGKTVTISCKRNTGNIGSNYVNWYQQHEGSSPTTIIYRDDKRPDGVSDRFSGSIDRSSKSASLTISNLKTEDEADYFCQSYSSGFIFGGGTKLTVL", 8.85]
]}

Q) Consider the binder variant 19362, monovalent anti-CD3 scFv-heterodimeric Fc (VL hC3E-1_6L3b (D52N), VH hC3E-1) (Fc fusion, not shown: a dimerising Fc or GST; small tags and cut ends, scFv order VH-(GGGGS)3-VL on Fc chain A; chain B is Fc only; also called v19362) scFv: EVQLVESGGGLVQPGGSLRLSCAASGVTFNYYGMSWIRQAPGKGLEWVASITNSGGRIYYPDSVKGRFTISRENTQKTLYLQMNSLRAEDTAVYYCTLDGRDGWVAYWGQGTLVTVSSGGGGSGGGGSGGGGSNFMLTQPHSVSESPGKTVTISCKRNTGNIGSNYVNWYQQLPGTAPKTIIYRNDKRPDGVPDRFSGSIDSSSNSASLAISGLQSEDEADYYCQSYSSGFIFGGGTKLTVL and give its measured pEC50.
A) 8.72

Q) GET /values?readout=pEC50&item= variant 18596, monovalent anti-CD3 scFv-heterodimeric Fc (VL hC3E-1, VH hC3E-1a D102E) (Fc fusion, not shown: a dimerising Fc or GST; small tags and cut ends, scFv order VH-(GGGGS)3-VL on Fc chain A; chain B is Fc only; also called v18596) scFv: EVQLVESGGGLVQPGGSLRLSCAASGVTFNYYGMSWIRQAPGKGLEWVASITNSGGRIYYPDSVKGRFTISRENTQKTLYLQMNSLRAEDTAVYYCTLDGREGWVAYWGQGTLVTVSSGGGGSGGGGSGGGGSNFMLTQPHSVSESPGKTVTISCKRNTGNIGSNYVNWYQQHEGSSPTTIIYRDDKRPDGVSDRFSGSIDRSSKSASLTISNLKTEDEADYFCQSYSSGFIFGGGTKLTVL
A) 6.77
